// data source = patent US11912693B2

- TARGET OF ASSAY: human sphingosine-1-phosphate receptor 1 (S1P1) (Homo sapiens (Human))
- Sequence (P21453 whole entry, looked up): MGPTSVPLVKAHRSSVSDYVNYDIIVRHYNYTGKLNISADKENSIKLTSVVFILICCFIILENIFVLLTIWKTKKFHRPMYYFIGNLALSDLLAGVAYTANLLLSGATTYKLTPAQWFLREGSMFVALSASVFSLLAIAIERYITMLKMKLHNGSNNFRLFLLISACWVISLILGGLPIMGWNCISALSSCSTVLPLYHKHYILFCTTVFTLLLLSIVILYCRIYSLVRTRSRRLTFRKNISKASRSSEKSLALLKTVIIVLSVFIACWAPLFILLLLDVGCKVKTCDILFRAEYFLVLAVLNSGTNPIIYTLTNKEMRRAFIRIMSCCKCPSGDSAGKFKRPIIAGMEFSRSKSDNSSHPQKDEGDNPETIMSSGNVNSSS
- Sequence (P32121 whole entry partner, looked up): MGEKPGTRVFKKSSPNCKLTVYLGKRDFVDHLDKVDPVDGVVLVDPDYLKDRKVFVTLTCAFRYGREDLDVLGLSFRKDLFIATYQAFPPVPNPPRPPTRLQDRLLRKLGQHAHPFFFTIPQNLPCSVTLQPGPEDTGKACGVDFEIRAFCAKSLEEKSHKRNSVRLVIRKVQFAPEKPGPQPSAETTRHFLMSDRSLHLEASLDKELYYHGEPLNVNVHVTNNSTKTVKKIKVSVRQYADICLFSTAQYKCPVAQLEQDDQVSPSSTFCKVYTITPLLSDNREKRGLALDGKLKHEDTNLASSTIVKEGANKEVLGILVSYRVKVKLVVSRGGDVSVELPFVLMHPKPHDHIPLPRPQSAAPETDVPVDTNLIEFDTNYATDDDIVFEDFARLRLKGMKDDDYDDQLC
- ASSAY NAME: β-Arrestin2 recruitment assay (PathHunter), S1P1 CHO-K1 cells
- Type: cell-based
- COND: CHO-K1; efficacy (SPAN) normalized to fingolimod; read-out: hS1P1 B-arrestin2 SPAN
METRIC NAME: Emax

Reference set (3 entries):
1. CCC1(CC)CC(=O)c2cc(-c3nc(-c4cncc(NS(C)(=O)=O)c4)no3)ccc2O1; > 75%
2. Cc1cn(C)nc1-c1noc(-c2ccc3c(c2)nnn3C(C)C)n1; > 75%
3. CC(C)n1nnc2cc(-c3noc(-c4ccccc4OC(F)(F)F)n3)ccc21; > 75%

Continue with the next compound.
# value lookup — system human sphingosine-1-phosphate receptor 1 (S1P1) (Homo sapiens (Human)), readout Emax, item O=C1CC2(CCCCC2)Oc2ccc(-c3nc(-c4cccnc4)no3)cc21
< 75%
